- PROCEDURE_TEXT: yeast display, Sf9 membrane polyspecificity reagent, FACS + sequencing; frameworks hold sequencing errors
PROPERTY_MEASURED: polyreactivity (PSR sort gate)

Use the examples below as a reference point.
INSERT INTO measurements (primary_sequence, property_measured, result) VALUES
  ('QDQLVESGGGLVQAGGSLRLSCAASGSIFYYYAMGWYRQAPGKERELVASISRSGGSTFYADSVKGRFTISRDNAKNSVYLQMNRLKPEDTAVSYCATGWYYSPYNYWGQGTQVTVSS', 'polyreactivity (PSR sort gate)', 'high polyreactivity'),
  ('QVQLVESGGGLVQAGGSLRLSCAASGSTFVYNAMGWYRQAPGKERELVAAIRTTGTGTYYADSVKGRFTISRDNAKNTVYLQMNSLKPEDTAVYYCATDYNYWKLDFGYWGQGTQVTVSS', 'polyreactivity (PSR sort gate)', 'high polyreactivity'),
  ('QVQLVESGGGLVQAGGSLRLSCAASGRIFLVNTMGWYRQAPGKERELVATITFSVVRTYYADSVKGRFTISRDNAKNSVYLQMNSLKPEVTAVYYCAKQHLVSVPEMYYWGQGTQVTVSS', 'polyreactivity (PSR sort gate)', 'low polyreactivity'),
  ('QVQLVESGGGLVQAGGSLRLSCAASGRTFESNAMGWYRQAPGKERELVAGITSGGITNYADSVKGRFTISRDNAKNTVYLQMISLKPEDTAVYYCEFYYWGQGTQVTVSS', 'polyreactivity (PSR sort gate)', 'low polyreactivity');

Kindly consider the entry below.
Which polyreactivity (PSR sort gate) reading was recorded for the sequence QVQLVESGGGLVQAGGSLRLSCAASGLIFDYYAMGWYRQAPGKERELVAAISANTGRTYYADSVKGRFTISRDNAKNTVYLQMNSLKPEDTAVYYCAAYTQYDGAEFDYWGHGTQVTVSS ? high polyreactivity
